All figures here come from ChEMBL document CHEMBL5316265.

# PROTOCOL_DESCRIPTION: Oral bioavailability in Beagle dog at 2 mg/kg
# Format: ADME, organism-based, Canis lupus familiaris
# CONDITION_NOTES: in vivo
QUANTITY_KIND: bioavailability (%)
Output spec: scalar in %, unitless text.

Query block: Answer with reported bioavailability of Cc1nc2nc(C)c(O[C@@H]3CCN(c4ccc(-c5ccc(CN6CCOCC6)nn5)cc4)C3)c(C)n2n1
Result block: 84
